All figures here come from patent US20150087627A1.

Study system: PI3K α (p110α/p85α) (Homo sapiens)
Construct: purchased Upstate / Millipore Corporation
Test: PI 3-Kinase (human) HTRF assay, PI3K α
Type: biochemical
Measurement parameters: read-out: PI3K α IC50
Measurement name: IC50

The cases that follow already have their IC50 on record.
-- ask For the molecule shown here, COc1ccc(-c2ccc3ncc(C(=O)N4CCOCC4)n3c2)cc1S(=O)(=O)Nc1ccccc1 , give the reported IC50.
-- reply < 10 µM

-- ask For the molecule shown here, C[C@H]1CN(c2nc3cc(-c4ccc5oc(N)nc5c4)ccc3nc2N)CCN1 , give the reported IC50.
-- reply < 10 µM

-- ask For the molecule shown here, C[C@H]1CN(c2cnc3ccc(-c4ccc5nc(N)sc5c4)cc3n2)CCN1 , give the reported IC50.
-- reply < 1 µM

Here is another molecule to look at.
-- ask For the molecule shown here, Cc1c(-c2ccc3oc(N)nc3c2)ccc2ncc(C(=O)N3CCOCC3)n12 , give the reported IC50.
-- reply > 10 µM

* * *

Study system: PI3K α (p110α/p85α) (Homo sapiens, UniProt P42336)
Construct: purchased Upstate / Millipore Corporation
Sequence (P42336 whole entry): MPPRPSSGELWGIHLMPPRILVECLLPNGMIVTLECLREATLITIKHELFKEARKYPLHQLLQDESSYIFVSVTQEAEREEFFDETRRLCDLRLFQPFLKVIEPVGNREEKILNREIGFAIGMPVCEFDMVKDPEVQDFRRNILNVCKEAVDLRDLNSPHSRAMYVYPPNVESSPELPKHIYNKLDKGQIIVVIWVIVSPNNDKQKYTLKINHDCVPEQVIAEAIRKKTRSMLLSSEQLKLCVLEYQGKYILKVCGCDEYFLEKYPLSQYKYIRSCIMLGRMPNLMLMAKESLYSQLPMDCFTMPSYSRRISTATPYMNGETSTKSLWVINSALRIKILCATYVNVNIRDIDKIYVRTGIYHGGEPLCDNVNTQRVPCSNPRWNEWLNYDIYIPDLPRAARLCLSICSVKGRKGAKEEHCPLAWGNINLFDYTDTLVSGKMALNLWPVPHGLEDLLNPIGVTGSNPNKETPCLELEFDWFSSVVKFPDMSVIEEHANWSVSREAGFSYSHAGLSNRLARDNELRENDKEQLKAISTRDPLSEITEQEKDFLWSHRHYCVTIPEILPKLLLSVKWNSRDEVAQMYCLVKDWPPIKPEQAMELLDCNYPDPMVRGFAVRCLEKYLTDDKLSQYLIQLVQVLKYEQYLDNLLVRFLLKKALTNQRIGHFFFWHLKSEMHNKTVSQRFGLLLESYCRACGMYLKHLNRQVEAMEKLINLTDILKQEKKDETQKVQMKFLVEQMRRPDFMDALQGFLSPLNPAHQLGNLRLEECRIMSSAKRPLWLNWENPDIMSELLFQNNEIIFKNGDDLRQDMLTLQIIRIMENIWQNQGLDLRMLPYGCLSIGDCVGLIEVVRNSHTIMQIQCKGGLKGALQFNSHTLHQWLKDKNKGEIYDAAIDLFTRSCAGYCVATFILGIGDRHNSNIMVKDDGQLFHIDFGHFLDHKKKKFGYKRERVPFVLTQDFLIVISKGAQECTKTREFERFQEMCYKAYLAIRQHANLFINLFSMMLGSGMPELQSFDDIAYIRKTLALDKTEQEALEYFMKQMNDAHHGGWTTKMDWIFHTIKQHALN
Sequence (P27986 whole entry partner): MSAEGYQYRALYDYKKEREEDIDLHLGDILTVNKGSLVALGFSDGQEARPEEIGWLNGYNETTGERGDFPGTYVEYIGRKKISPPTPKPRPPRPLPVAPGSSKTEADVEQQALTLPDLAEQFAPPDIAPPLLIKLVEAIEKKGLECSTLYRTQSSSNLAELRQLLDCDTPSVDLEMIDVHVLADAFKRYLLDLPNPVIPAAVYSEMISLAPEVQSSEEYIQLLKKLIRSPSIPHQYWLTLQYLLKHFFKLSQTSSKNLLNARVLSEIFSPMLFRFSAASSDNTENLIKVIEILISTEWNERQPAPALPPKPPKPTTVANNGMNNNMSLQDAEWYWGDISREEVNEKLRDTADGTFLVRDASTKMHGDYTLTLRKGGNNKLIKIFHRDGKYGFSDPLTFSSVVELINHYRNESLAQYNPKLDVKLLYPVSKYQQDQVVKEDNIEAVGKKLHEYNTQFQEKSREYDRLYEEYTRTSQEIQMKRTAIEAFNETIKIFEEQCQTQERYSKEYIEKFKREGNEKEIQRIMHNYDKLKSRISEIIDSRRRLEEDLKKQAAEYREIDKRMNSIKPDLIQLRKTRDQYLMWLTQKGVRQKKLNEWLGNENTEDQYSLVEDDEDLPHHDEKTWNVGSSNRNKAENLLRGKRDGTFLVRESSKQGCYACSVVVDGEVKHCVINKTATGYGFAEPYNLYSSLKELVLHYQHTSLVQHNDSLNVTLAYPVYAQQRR
Test: PI 3-Kinase (human) HTRF assay, PI3K α
Format: biochemical
Measurement parameters: read-out: PI3K α IC50
Property: IC50; scope: individual molecules

-- ask For the molecule shown here, CC(N)C(=O)N1CCN(c2cnc3ccc(-c4ccc5oc(N)nc5c4)cc3n2)CC1 (stereo not drawn) [Compound 134] , give the reported IC50.
-- reply < 100 nM

-- ask For the molecule shown here, C[C@H]1CN(C2CN(c3cnc4ccc(-c5ccc6oc(N)nc6c5)cc4n3)C2)CCN1 [Compound 350] , give the reported IC50.
-- reply < 100 nM

-- ask For the molecule shown here, CN1CCC(n2cnc3ccc(-c4ccc5oc(N)nc5c4)cc3c2=O)CC1 [Compound 36] , give the reported IC50.
-- reply < 100 nM

-- ask For the molecule shown here, O=C(c1cnc2ccc(-c3cncc4[nH]ncc34)cn12)N1CCOCC1 [Compound 506] , give the reported IC50.
-- reply < 100 nM

-- ask For the molecule shown here, Cn1cc(-c2cnc3ccc(-c4ccc5oc(N)nc5c4)cn23)cn1 [Compound 41] , give the reported IC50.
-- reply < 100 nM

More entries:
-- ask For the molecule shown here, CCN1CCN(c2cnc3ccc(-c4ccc5oc(N)nc5c4)cc3n2)C(=O)C1 [Compound 391] , give the reported IC50.
-- reply < 10000 nM

-- ask For the molecule shown here, Nc1nc2cc(-c3ccc4ncc(OC5CCOCC5)nc4c3)ccc2o1 [Compound 49] , give the reported IC50.
-- reply < 100 nM

-- ask For the molecule shown here, CS(=O)(=O)N1CCC(n2cnc3ccc(-c4ccc5oc(N)nc5c4)cc3c2=O)CC1 [Compound 67] , give the reported IC50.
-- reply < 1000 nM

-- ask For the molecule shown here, Nc1nc2cc(-c3ccc4ncn(CCO)c(=O)c4c3)ccc2o1 [Compound 184] , give the reported IC50.
-- reply < 100 nM

-- ask For the molecule shown here, COc1ncc(-c2ccc3ncn(C4CCN(C)CC4)c(=O)c3c2)cc1NS(C)(=O)=O [Compound 525] , give the reported IC50.
-- reply < 100 nM

-- ask For the molecule shown here, Nc1nc2cc(-c3ccc4ncc(NCCN5CCOCC5)nc4c3)ccc2o1 [Compound 133] , give the reported IC50.
-- reply < 100 nM

-- ask For the molecule shown here, Nc1nc2ccc(-c3cc(F)c4oc(N)nc4c3)cc2o1 [Compound 433] , give the reported IC50.
-- reply < 1000 nM
